List of GTP binding, percent of control values.
biological target: GTPase HRas (Homo sapiens); test: Ras wt fluorescent GTP loading blockade – biochemical, wildtype, multiplex bead flow cytometry, dose response (AID 1335); conditions: bead-based flow cytometry, Bodipy-GTP binding to GST-Ras; at 100 µM (top of the series) unless noted
Numbers only here, please. The scale is %.

// solved cases for GTP binding, percent of control follow
[
  {
    "molecule": "O=S(=O)(Cc1ccc(Cl)cc1)c1ccccc1-c1nnc(-c2ccc(Cl)cc2)o1",
    "system": "GTPase HRas (Homo sapiens)",
    "value": 160
  },
  {
    "molecule": "COc1ccc(/C=C2\\SC(=S)N(CCCC(=O)NNC(=O)c3ccccc3O)C2=O)cc1",
    "system": "GTPase HRas (Homo sapiens)",
    "value": 73.5
  },
  {
    "molecule": "COc1ccc(C2CC(c3ccccc3)=NN2c2ccc(S(N)(=O)=O)cc2)cc1 (stereo not given)",
    "system": "GTPase HRas (Homo sapiens)",
    "value": 84.1
  },
  {
    "molecule": "COc1ccc(CCNC(=O)C2CCCN2C(=O)NC2CCCCC2)cc1OC (stereo not given)",
    "system": "GTPase HRas (Homo sapiens)",
    "value": 180
  },
  {
    "molecule": "CCc1nnc(NS(=O)(=O)c2ccc(Nc3ccc4nonc4c3[N+](=O)[O-])cc2)s1",
    "system": "GTPase HRas (Homo sapiens)",
    "value": 65.4
  }
]

Please provide the recorded GTP binding, percent of control for CC(=O)Nc1ccc(N2C(=O)c3ccc(C(=O)Nc4nnc(SCc5ccc(F)cc5)s4)cc3C2=O)cc1 , tested on GTPase HRas (Homo sapiens). 92.1

// query: Cc1ccccc1-n1c(SCc2c(C)noc2C)nnc1-c1cccnc1 179

Moving on to COc1ccc(CC(=O)Nc2ccc(C(=O)Nc3nccs3)cc2)cc1OC 75.2

Cool, now Cc1cc(C)cc(OCCSc2nc3ccccc3n2CC(=O)O)c1 87.4

Ok, now Cc1[nH]c2ccccc2c1/C=C/C(=O)c1ccccc1 81.7

---

test: TOR pathway GLN3 branch reporter MEP2-GFP changes – S. cerevisiae, multiplex flow cytometry, primary screen (AID 1867);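 note: median GFP channel fluorescence of barcode-gated MEP2-GFP cells measured by flow cytometry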; settings: S. cerevisiae MEP2-GFP strain, 3 h, at 10 µM, stronger effect = higher value, 100% means same as DMSO wells
Results filed as inconclusive are left out.
Known GFP response vs DMSO of a selection of molecules
Give the number; % is assumed, so skip it.

See these solved cases before continuing.
[
  {
    "molecule": "COc1cc2c(cc1OC)C(c1ccccc1)=NCC2",
    "value": 144
  },
  {
    "molecule": "Cc1c(NC(=O)c2cccs2)cccc1[N+](=O)[O-]",
    "value": 103
  },
  {
    "molecule": "O=C(NCCC(c1ccccc1)c1ccco1)c1cccs1 (stereo unspecified)",
    "value": 105
  },
  {
    "molecule": "COc1cc2c(cc1OC)C(=S)NC(C)(C)C2",
    "value": 106
  },
  {
    "molecule": "COc1ccccc1OCC(O)COC(N)=O (stereo unspecified)",
    "value": 131
  },
  {
    "molecule": "CC(C)OC(=O)CC12CN3CN(C1)CC(CC(=O)OC(C)C)(C3)C2=O",
    "value": 115
  },
  {
    "molecule": "CN(C)[C@@H]1C(=O)C(C(=O)NCN2CCCC2)=C(O)[C@@]2(O)C(=O)C3=C(O)c4c(O)cccc4[C@@](C)(O)C3CC12 (stereo partly specified)",
    "value": 119
  },
  {
    "molecule": "O=C(O)CCCCCN1C(=O)C(=O)/C(=C(/O)c2ccccc2)C1c1ccccc1 (stereo unspecified)",
    "value": 97.4
  }
]

Recorded GFP response vs DMSO of CC1=NS(=O)(=O)c2cc(Cl)ccc2N1 , please. 105

Same for C[C@H]1C[C@@H]2[C@H]([C@@H](O)C[C@@]3(C)[C@H]2CC[C@]3(O)C(=O)CO)[C@@]2(C)C=CC(=O)C=C12 145

Now the molecule NS(=O)(=O)c1cc(C2(O)NC(=O)c3ccccc32)ccc1Cl (stereo unspecified) 117

---

system: anti-desmoglein-3 scFv antibody binding to human DSG3; experiment: blockers of pathogenic pemphigus antibody–desmoglein-3 binding – biochemical, validation compound set, bead-based, flow cytometry, pilot screen (AID 588368); conditions: Protein G beads, DSG3-Fc, scFv-GFP binding, at 10 µM, stronger effect = lower value;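 note: signal is the median channel fluorescence of bead-bound GFP antibody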
recorded-endpoint: binding (% of control) (%)
Please give a number only; it is taken to be in %.

Below: 10 compounds and their reported binding (% of control).
[
  {
    "compound": "Cc1cccc2c1CC(C)(C)N/C2=C\\C(N)=O",
    "value": 113
  },
  {
    "compound": "CCOC(=O)c1c(O)c2c([nH]c1=O)CCCC2",
    "value": 99.3
  },
  {
    "compound": "OCCC1CN(Cc2nc(-c3ccccc3)cs2)CCN1Cc1ccc(F)cc1 (centres undefined)",
    "value": 100
  },
  {
    "compound": "CCc1ccc(CN(C)Cc2nc(Cc3ccccc3)no2)nc1",
    "value": 97.3
  },
  {
    "compound": "Cc1c(Cc2ccccc2)c(=O)oc2c(CN(C)C)c(O)c(Cl)cc12",
    "value": 99.3
  },
  {
    "compound": "Cc1ccc2c(c1C)NC(C(=O)O)C1CC=CC21 (centres undefined)",
    "value": 96.8
  },
  {
    "compound": "CC(C)=CCC/C(C)=C/CC/C(C)=N/O",
    "value": 103
  },
  {
    "compound": "CN1CCCN(C(c2ccccc2)c2ccc(Cl)cc2)CC1 (centres undefined)",
    "value": 107
  },
  {
    "compound": "COc1ccc(C2C3=C(OC(C)=O)c4ccccc4C3=Nc3c2c(=O)n(C)c(=O)n3C)cc1 (centres undefined)",
    "value": 102
  },
  {
    "compound": "C=C(C)Cn1c(NCCOC)nc2c1c(=O)[nH]c(=O)n2C",
    "value": 99.8
  }
]

Could you share what binding (% of control) was measured for C[C@H]1C[C@@H]2[C@H]([C@@H](O)C[C@@]3(C)[C@H]2CC[C@]3(O)C(=O)CO)[C@@]2(C)C=CC(=O)C=C12 , tested on anti-desmoglein-3 scFv antibody binding to human DSG3? 99.2

Next entry: COc1ccc(-c2c3c(=O)n(C)c(=O)n(C)c3cn2C2CCCCC2)cc1 95.5

Cool, now NC(N)=NC(N)=Nc1ccc2ccccc2c1 97.8

And what about the compound CC1Cc2ccccc2N1NC(=O)c1ccc(Cl)c(S(N)(=O)=O)c1 (centres undefined) ? 99.5

Same thing, different compound: O=C(COc1ccc(F)cc1)OCCN1CCOCC1 96.4

Next entry: CC1(C)C(=O)OC(/C=C\c2ccccc2)C(C)(C)C1=O (centres undefined) 97.3

Next compound: CCN1CCn2c3c(c4cc(Cl)ccc42)CCCC31 (centres undefined) 104

---

molecular target: GTPase HRas (Homo sapiens) (UniProt P01112); test: blockade of GTP loading onto mutant Ras – biochemical, activated mutant, multiplex bead flow cytometry, dose response (AID 1341); details: bead-based flow cytometry, Bodipy-FL-GTP binding; series mostly up to 100 µM;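 note: GST-tagged constitutively activated Ras mutant immobilized on beads and multiplexed with other GTPases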
Sequence (P01112 whole entry, looked up): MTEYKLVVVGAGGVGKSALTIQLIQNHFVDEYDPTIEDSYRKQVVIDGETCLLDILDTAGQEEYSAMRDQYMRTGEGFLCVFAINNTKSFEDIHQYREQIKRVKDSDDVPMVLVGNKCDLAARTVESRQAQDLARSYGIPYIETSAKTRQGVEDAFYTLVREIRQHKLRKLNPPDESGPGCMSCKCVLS
Measured potencies and affinities stand elsewhere. The source made the active and inactive calls.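 The calls were made as follows: active = dose-response curve with midpoint inside the tested range, moderate steepness, significant amplitude and little compound fluorescence or bead-attachment interference; inactive = the rest.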

[
  {
    "compound": "CC(=O)N1C(=O)/C(=C2\\SC(=S)N(NC(=O)c3ccc(O)cc3)C2=O)c2ccccc21",
    "system": "GTPase HRas (Homo sapiens) (UniProt P01112)",
    "outcome": "inactive"
  },
  {
    "compound": "CCC(C)C(=O)Nc1ccc(OC)cc1OC (centres undefined)",
    "system": "GTPase HRas (Homo sapiens) (UniProt P01112)",
    "outcome": "inactive"
  },
  {
    "compound": "CCN1C(c2ccccc2)=C(c2ccccc2)S/C1=C/C=C1\\SC(=S)N(C)C1=O",
    "system": "GTPase HRas (Homo sapiens) (UniProt P01112)",
    "outcome": "inactive"
  },
  {
    "compound": "Cc1nc2ccc(-c3nc4ccc(N)cc4[nH]3)cc2[nH]1",
    "system": "GTPase HRas (Homo sapiens) (UniProt P01112)",
    "outcome": "inactive"
  }
]

---

target: Beta-2 adrenergic receptor (Homo sapiens) (UniProt P07550); assay: agonist-induced loss of surface beta2AR – cell-based, FAP fluorogen, flow cytometry, validation set, pilot screen (AID 504459); conditions: Am2.2-beta2AR cells, at 10 µM, stronger effect = higher value;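 note: agonist-driven loss of surface beta2AR via internalization measured by FAP dye flow cytometry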
Sequence (P07550 whole entry, looked up): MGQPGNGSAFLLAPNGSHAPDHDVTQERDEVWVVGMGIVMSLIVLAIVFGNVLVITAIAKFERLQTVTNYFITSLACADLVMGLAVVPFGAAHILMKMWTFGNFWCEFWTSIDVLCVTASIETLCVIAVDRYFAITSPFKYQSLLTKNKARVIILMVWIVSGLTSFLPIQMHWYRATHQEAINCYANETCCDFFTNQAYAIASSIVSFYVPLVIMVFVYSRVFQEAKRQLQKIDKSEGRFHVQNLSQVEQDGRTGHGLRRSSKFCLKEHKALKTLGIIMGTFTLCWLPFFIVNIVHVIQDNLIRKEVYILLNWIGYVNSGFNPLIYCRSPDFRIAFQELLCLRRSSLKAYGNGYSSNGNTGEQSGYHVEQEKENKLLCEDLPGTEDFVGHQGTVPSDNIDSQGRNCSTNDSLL
response values, listed per item
Value expressed in %; do not type the unit.

The examples below pair each entry with its known result.
[
  {
    "molecule": "O=C(NC1CCCCC1)N1CCc2[nH]c3ccccc3c2C1",
    "system": "Beta-2 adrenergic receptor (Homo sapiens) (UniProt P07550)",
    "response (%)": 10.8
  },
  {
    "molecule": "CC[N+]1(C)CC2CCC(C)(C1)C2(C)C (stereo unspecified)",
    "system": "Beta-2 adrenergic receptor (Homo sapiens) (UniProt P07550)",
    "response (%)": 5
  },
  {
    "molecule": "Nc1nc(SCc2ccc([N+](=O)[O-])cc2)c2ncn(C3OC(CO)C(O)C3O)c2n1 (stereo unspecified)",
    "system": "Beta-2 adrenergic receptor (Homo sapiens) (UniProt P07550)",
    "response (%)": -15.6
  },
  {
    "molecule": "CCOc1ccc2ccccc2c1C(=O)N[C@@H]1C(=O)N2[C@@H]1SC(C)(C)[C@@H]2C(=O)O",
    "system": "Beta-2 adrenergic receptor (Homo sapiens) (UniProt P07550)",
    "response (%)": 1.55
  },
  {
    "molecule": "CCCCC(=O)O[C@H]1CC[C@H]2[C@@H]3CCc4cc(O)ccc4[C@H]3CC[C@]12C",
    "system": "Beta-2 adrenergic receptor (Homo sapiens) (UniProt P07550)",
    "response (%)": 52.1
  },
  {
    "molecule": "c1ccc(Cn2nnc3cnccc32)cc1",
    "system": "Beta-2 adrenergic receptor (Homo sapiens) (UniProt P07550)",
    "response (%)": 0.22
  },
  {
    "molecule": "COc1ccc2oc(-c3ccco3)cc(=O)c2c1",
    "system": "Beta-2 adrenergic receptor (Homo sapiens) (UniProt P07550)",
    "response (%)": -0.39
  },
  {
    "molecule": "Cc1ccc(S(=O)(=O)NC(=O)NN2CCCCCC2)cc1",
    "system": "Beta-2 adrenergic receptor (Homo sapiens) (UniProt P07550)",
    "response (%)": -9.17
  }
]

Return reported response; argument: O=C(CN1CC[n+]2c(-c3cccs3)csc21)c1ccc(Br)cc1 10.7

Also O=C(/C=C/Sc1ccccc1)c1ccccc1 , if possible. 28.9

Then what about the molecule C[C@@H]1C[C@H](Nc2ccccc2)c2ccccc2N1C(=O)c1cccnc1 ? 2.27
